assay.info: Primary qHTS for inhibitors of La Crosse Virus (LACV) - induced cell death in SH-SY5Y cells (AID 1508616)
assay.conditions: SH-SY5Y LACV cytopathicity rescue, ATP luminescence, 6 d; series mostly up to 4.29 µM
Records with an inconclusive call do not appear. Calls of active or inactive are those of the source. Calls follow the shape of the dose curve; as a rule, active = well fitted inhibition curve with a large enough effect; inconclusive = small, poorly fitted or top-dose-only effect; inactive = no such curve, though single readings can be large or run the other way.
Result category, one only: class 1 = active, class 0 = inactive

Examples with answers:
- compound: "Fc1ccc(C(OCCN2CCN(CCCc3ccccc3)CC2)c2ccc(F)cc2)cc1"
  assigned.category: "class 0"
- compound: "O=c1oc2ccccc2c(O)c1C(CC(O)c1ccc(-c2ccc(Br)cc2)cc1)c1ccccc1 (stereo not given)"
  assigned.category: "class 0"
- compound: "O=C(O)c1ccc2[nH]cc(CCCCN3CC=C(c4ccccc4)CC3)c2c1"
  assigned.category: "class 0"
- compound: "C#CCOC(C(=O)OCCN(C)C)(c1ccccc1)c1ccccc1"
  assigned.category: "class 0"
- compound: "C=CCN1CC[C@]23c4c5ccc(O)c4O[C@H]2C(=O)CC[C@@]3(O)[C@H]1C5"
  assigned.category: "class 0"

Per the assay record, what outcome was assigned to `NN=C(N)N` ?
class 0

Per the assay record, what outcome was assigned to CCC(C(N)=O)N1CCCC1=O (stereo not given) ?
class 0

Per the assay record, what outcome was assigned to `OCCOc1ccccc1` ?
class 0

Per the assay record, what outcome was assigned to `O=[N+]([O-])c1cc([As](=O)(O)O)ccc1O` ?
class 0

Per the assay record, what outcome was assigned to `CC(=O)[C@H]1CC[C@H]2[C@@H]3CC[C@H]4C[C@](C)(O)CC[C@]4(C)[C@H]3CC[C@]12C` ?
class 0

Per the assay record, what outcome was assigned to `C[C@]12CCC(=O)C(O)=C1CC[C@@H]1[C@@H]2CC[C@]2(C)C(=O)CC[C@@H]12` ?
class 0

Per the assay record, what outcome was assigned to CC(O)(CS(=O)(=O)c1ccc(F)cc1)C(=O)Nc1ccc(C#N)c(C(F)(F)F)c1 (stereo not given) ?
class 0

Per the assay record, what outcome was assigned to `CC[N+](CC)(CC)CC` ?
class 0

Per the assay record, what outcome was assigned to `C=C(C)[C@H]1Cc2c(ccc3c2O[C@@H]2COc4cc(OC)c(OC)cc4[C@@H]2C3=O)O1` ?
class 1

Per the assay record, what outcome was assigned to `O=c1[nH]c2ccccc2n1CCCN1CCC(n2c(=O)[nH]c3cc(Cl)ccc32)CC1` ?
class 0
